# Tested on: HSSY-II tumor spheroid viability
# procedure_text: Anticancer human tumor HSSY-II cell line growth inhibition;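 also: spheroids exposed to compounds for seven days before reading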;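 as to viability, T/C: percent of DMSO vehicle control viability so 100% = untreated level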
# protocol_conditions: second compound 0.0949 µM; first compound 0.3 µM; stronger effect = lower value; spheroids with HUVEC and MSC
metric_name: viability, T/C (%)
Write the answer as a number in %, unit excluded.

# example entries with known answers
compound	metric_name	measurement_units	test_result
Cn1ncnc1[C@H]1c2n[nH]c(=O)c3cc(F)cc(c23)N[C@@H]1c1ccc(F)cc1 + CC[C@@]1(O)C(=O)OCc2c1cc1n(c2=O)Cc2cc3c(CN(C)C)c(O)ccc3nc2-1	viability, T/C	%	3.91
CNCc1ccc(-c2cc(-c3nc(-c4ccc(S(=O)(=O)C(C)C)cc4)cnc3N)on2)cc1 + CC[C@@]1(O)C(=O)OCc2c1cc1n(c2=O)Cc2cc3c(CN(C)C)c(O)ccc3nc2-1	viability, T/C	%	3.55
Cc1sc2c(c1C)C(c1ccc(Cl)cc1)=NC(CC(=O)Nc1ccc(O)cc1)c1nnc(C)n1-2 (centres undefined) + CC[C@@]1(O)C(=O)OCc2c1cc1n(c2=O)Cc2cc3c(CN(C)C)c(O)ccc3nc2-1	viability, T/C	%	4.3

viability, T/C reading for O=C(c1cc(Cc2n[nH]c(=O)c3ccccc23)ccc1F)N1CCN(C(=O)C2CC2)CC1 + CC[C@@]1(O)C(=O)OCc2c1cc1n(c2=O)Cc2cc3c(CN(C)C)c(O)ccc3nc2-1 : 4.58

====

# Tested on: HSSY-II tumor spheroid viability
# procedure_text: Anticancer human tumor HSSY-II cell line growth inhibition;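 also: spheroids exposed to compounds for seven days before reading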
# protocol_conditions: curve of first compound; second compound 1 µM; spheroids with HUVEC and MSC
pIC50: −log10 of the molar value.
metric_name: pIC50

# example entries with known answers
molecule	pIC50
[2H]c1nc(C)nc([2H])c1-c1cc(NC[C@@H](C)c2cccc3c(C(=O)NC)ccnc23)ncn1 + Cn1nnc2c(C(N)=O)ncn2c1=O	< 5.00
COc1cc(C)[nH]c(=O)c1CN1CCc2c(Cl)cc(C(OC)C3COC3)c(Cl)c2C1=O (centres undefined) + Cn1nnc2c(C(N)=O)ncn2c1=O	< 5.00
CC1COCCN1c1cc(-c2ccnn2C)c2ccnc(-c3ccn[nH]3)c2n1 (centres undefined) + Cn1nnc2c(C(N)=O)ncn2c1=O	> 7.50

Please look at the following molecule next.
Simply: Cc1cc(C)c(CNC(=O)c2cc(-c3ccc(CN4CCOCC4)cc3)cc3c2cnn3C2CCCC2)c(=O)[nH]1 + Cn1nnc2c(C(N)=O)ncn2c1=O , HSSY-II tumor spheroid viability, pIC50 = < 5.00

====

Overview of reported pIC50 across a group of molecules:
# Tested on: HSSY-II tumor spheroid viability
# procedure_text: Anticancer human tumor HSSY-II cell line growth inhibition;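 also: spheroids exposed to compounds for seven days before reading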
# protocol_conditions: curve of first compound; second compound 0.03 µM; spheroids with HUVEC and MSC
# Procedure: Multicellular complex tumor spheroid response to DNA repair inhibitors in combination with DNA-damaging drugs This study explores the anticancer activities of DNA-damaging drugs and inhibitors of DNA damage repair, both as single agents and in combinations. […] Twenty-six patient-derived or established malignant cell lines were evaluated representing sarcoma, melanoma, small cell lung cancer (SCLC), non-small cell lung cancer (NSCLC), as well as bladder, ovarian and pancreatic cancers. […]
pIC50: −log10 of the molar value.

molecule	assay_target	test_result
CNCc1ccc(-c2cc(-c3nc(-c4ccc(S(=O)(=O)C(C)C)cc4)cnc3N)on2)cc1 + CC[C@@]1(O)C(=O)OCc2c1cc1n(c2=O)Cc2cc3c(CN(C)C)c(O)ccc3nc2-1	HSSY-II tumor spheroid viability	> 8.02
Cn1ncnc1[C@H]1c2n[nH]c(=O)c3cc(F)cc(c23)N[C@@H]1c1ccc(F)cc1 + CC[C@@]1(O)C(=O)OCc2c1cc1n(c2=O)Cc2cc3c(CN(C)C)c(O)ccc3nc2-1	HSSY-II tumor spheroid viability	> 8.02

Please look at the following molecule next.
pIC50 reading for COc1cc(C)[nH]c(=O)c1CN1CCc2c(Cl)cc(C(OC)C3COC3)c(Cl)c2C1=O (stereo not drawn) + CC[C@@]1(O)C(=O)OCc2c1cc1n(c2=O)Cc2cc3c(CN(C)C)c(O)ccc3nc2-1 : > 7.50

====

# System: HSSY-II tumor spheroid viability
# procedure_text: Anticancer human tumor HSSY-II cell line growth inhibition;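 also: spheroids exposed to compounds for seven days before reading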
# protocol_conditions: curve of first compound; second compound 94.9 pM; spheroids with HUVEC and MSC
pIC50: −log10 of the molar value.
metric_name: pIC50

compound	assay_target	pIC50
[2H]c1nc(C)nc([2H])c1-c1cc(NC[C@@H](C)c2cccc3c(C(=O)NC)ccnc23)ncn1 + COc1cc2c(cc1O)CCNC21CSC2c3c(OC(C)=O)c(C)c4c(c3C(COC1=O)N1C(O)C3Cc5cc(C)c(OC)c(O)c5C(C21)N3C)OCO4	HSSY-II tumor spheroid viability	< 5.00
CC1COCCN1c1cc(-c2ccnn2C)c2ccnc(-c3ccn[nH]3)c2n1 (centres undefined) + COc1cc2c(cc1O)CCNC21CSC2c3c(OC(C)=O)c(C)c4c(c3C(COC1=O)N1C(O)C3Cc5cc(C)c(OC)c(O)c5C(C21)N3C)OCO4	HSSY-II tumor spheroid viability	> 7.50
COc1cc(C)[nH]c(=O)c1CN1CCc2c(Cl)cc(C(OC)C3COC3)c(Cl)c2C1=O (centres undefined) + COc1cc2c(cc1O)CCNC21CSC2c3c(OC(C)=O)c(C)c4c(c3C(COC1=O)N1C(O)C3Cc5cc(C)c(OC)c(O)c5C(C21)N3C)OCO4	HSSY-II tumor spheroid viability	< 5.00

pIC50 reading for Cn1ncnc1[C@H]1c2n[nH]c(=O)c3cc(F)cc(c23)N[C@@H]1c1ccc(F)cc1 + COc1cc2c(cc1O)CCNC21CSC2c3c(OC(C)=O)c(C)c4c(c3C(COC1=O)N1C(O)C3Cc5cc(C)c(OC)c(O)c5C(C21)N3C)OCO4 : > 8.02
